- ASSAY_DETAILS: In vivo 19F-NMR spectroscopy of CB3988 in mice
- RECORDED_CONDITIONS: mouse, upper abdomen (in vivo NMR signal), iv, 500 mg kg-1 i.v., analysis period 40-120 min, mean ± s.d. of three mice, read-out: half life for the decline of NMR signal from the upper abdomen (overall mean)
OBSERVED_PROPERTY: half-life (min)

C#CCN(Cc1ccc2nc(C)[nH]c(=O)c2c1)c1ccc(C(=O)N[C@@H](CCC(=O)O)C(=O)O)c(C(F)(F)F)c1	28
